- Test system: Pseudomonas aeruginosa
- Assay notes: Antibacterial activity against Pseudomonas aeruginosa 1091-05 by CLSI broth microdilution method
- Type: functional
# key: entry, value: MIC

CC(C)(O/N=C(\C(=O)N[C@H]1CON(C2(C(=O)O)C[C@@H](NC(=O)c3cc(=O)c(O)cn3O)C(=O)O2)C1=O)c1csc(N)n1)C(=O)O (some centres not stated) = 2 µg/mL
CC(C)(O/N=C(\C(=O)N[C@H]1CON(C2(C(=O)O)C[C@H](NC(=O)OCc3ccccc3)C(=O)O2)C1=O)c1csc(N)n1)C(=O)O (some centres not stated) = > 64 µg/mL
CC(C)(O/N=C(\C(=O)N[C@H]1CON(C2(C(=O)O)C[C@H](N3C(=O)c4cc(O)c(O)cc4C3=O)C(=O)O2)C1=O)c1csc(N)n1)C(=O)O (some centres not stated) = 0.5 µg/mL
CC(C)(O/N=C(\C(=O)N[C@H]1CON(C2(C(=O)O)C[C@H](NC(=O)c3cc(=O)c(O)cn3O)C(=O)O2)C1=O)c1csc(N)n1)C(=O)O (some centres not stated) = 64 µg/mL
CC(C)(O/N=C(\C(=O)N[C@H]1CON(C2(C(=O)O)C[C@@H](NC(=O)OCc3ccccc3)C(=O)O2)C1=O)c1csc(N)n1)C(=O)O (some centres not stated) = > 64 µg/mL

Using the record for Nc1nc(/C(=N/OCc2cc(=O)c(O)cn2O)C(=O)N[C@H]2CON(C3(C(=O)O)CCC(=O)O3)C2=O)cs1 (some centres not stated) , report its MIC.
4 µg/mL

Using the record for CC(C)(O/N=C(\C(=O)N[C@H]1CON(C2(C(=O)O)CCC(=O)O2)C1=O)c1csc(N)n1)C(=O)O (some centres not stated) , report its MIC.
32 µg/mL
